assay_method_text: NCI Yeast Anticancer Drug Screen. Data for the rad50 strain (AID 155);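 note: 0% = growth of vehicle-only cultures of the same strain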
assay_setup: S. cerevisiae rad50 strain growth inhibition; at 50.0 µM
Compounds without any hit were thinned out: in the full panel of roughly 79,000, 15% have a hit. Activity calls are given as the source filed them. Cut-off read from the data, not from the text of the source: active = growth inhibition above about 70%; inactive = the rest.
The categories you may choose from are class 1 (active), class 0 (inactive)

Inquiry: Could you please tell me the result logged for `COc1cc(NC(C)=O)c2nccnc2c1` in this assay?
Reply text: class 0

Inquiry: Then what about the compound `CC(C)CCC(=O)OC/C(=N\Nc1ccc([N+](=O)[O-])cc1[N+](=O)[O-])c1ccc(-c2ccccc2)cc1` ?
Reply text: class 0

Inquiry: Cool, now `CCOc1c(N=Nc2ccccc2[N+](=O)[O-])c(C)nn1C(N)=S`
Reply text: class 0

Inquiry: Another compound to look at: `C[C@@H](O)[C@H](NSc1ccccc1[N+](=O)[O-])C(=O)NCCc1nc(-c2nc(C(=O)NCCCBr)cs2)cs1`
Reply text: class 0

Inquiry: Now give it for `Nc1ccc(N(C(=O)c2ccccc2)C(=O)c2ccccc2)c(-c2ccccc2)c1` too.
Reply text: class 0

Inquiry: Proceed to CC(=O)C1=C(C)NC2C=CC=CN12 (centres undefined)
Reply text: class 0

Inquiry: Proceed to `O=C(CN1CCN(c2ccccc2)CC1)n1nnc2ccccc21`
Reply text: class 0

Inquiry: Another: `CC(=O)/C(=C\I)c1ccccc1`
Reply text: class 1

Inquiry: Further, for `CCN(CC)c1ncnc2n[nH]nc12` ?
Reply text: class 0

Inquiry: And for O=CC1N=C1c1ccccc1 (centres undefined) ?
Reply text: class 0

Inquiry: How about this compound: `O=C(Nc1ccc(Br)cc1)Oc1ccc(-c2ccccc2)cc1`
Reply text: class 0

Inquiry: Subsequent entry: `C[CH2][Ge]([CH2]C)[CH2]C.C[CH2][Ge]([CH2]C)[CH2]C.C[CH2][Ge]([CH2]C)[S][Ge]([CH2]C)[CH2]C`
Reply text: class 0

Inquiry: Now consider COc1ccc(NC(=O)CCC2=CC(=O)CC(c3ccccc3)O2)cc1 (centres undefined) .
Reply text: class 0

Inquiry: Same question for `COC(=O)c1nnn(-c2ccc(Cl)cc2C)c1N` please.
Reply text: class 0

Inquiry: Also, COC(=O)CCC(=O)C(CC(=O)OC)C(=O)CCC(=O)NCCc1ccccc1 (centres undefined) please.
Reply text: class 0

Inquiry: Field entry: Cc1cc2nn(C3CCCCO3)nc2cc1C (centres undefined)
Reply text: class 0

Inquiry: Param item: C#CC(CCC)NC(C)(C)C (centres undefined)
Reply text: class 0

Inquiry: Same thing, different compound: `COC(=O)C1CCC(=O)CC1`
Reply text: class 0

Inquiry: Next: `Cc1cc(=O)[nH]c(-n2[nH]c(C)c(CCO)c2=O)n1`
Reply text: class 0

Inquiry: Now the same for `CC(=O)[C@@]1(O)CC[C@H]2[C@@H]3C[C@H](C)C4=CC(=O)C=C[C@]4(C)[C@@]3(F)[C@@H](O)C[C@@]21C`
Reply text: class 0

Inquiry: Subsequent entry: `O=C(Nc1ccc(NC(=O)Nc2ccc(C3=NCCN3)cc2)cc1)Nc1ccc(C2=NCCN2)cc1`
Reply text: class 0

Inquiry: Check `Clc1ccc(NC2=NCCN=C(Nc3ccc(Cl)c(Cl)c3)SS2)cc1Cl` too.
Reply text: class 0

Inquiry: Let us now turn to `C1CCc2nc3c(nc2C1)CCCC3`
Reply text: class 0

Inquiry: Ok, now `CCCCOC(=O)c1ccccc1`
Reply text: class 0
